Data origin, for the record: PubChem BioAssay (NCI)

# Test system: HT29 colon
# ASSAY_NAME: NCI-60 one-dose screen, 48 h (100 = growth as untreated, 0 = no growth, -100 = all killed)
# CONDITION_LABEL: 10 µM unless noted
Compounds without any hit were thinned out: in the full panel of roughly 83,000, 20% have a hit.

- TEST_SMILES: "COc1ccc(N/N=C/c2c(-c3ccc(S(C)(=O)=O)cc3)nc3ccccn23)cc1"
  UNIT: "%"
  growth: 64.4
- TEST_SMILES: "COc1cc(-c2nc3ccc(-c4nnc(SCC(=O)Nc5ccc(C(=O)/C=C/c6ccc(Cl)cc6)cc5)o4)cc3[nH]2)cc(OC)c1OC"
  UNIT: "%"
  growth: 102
- TEST_SMILES: "N#Cc1c(-c2ccc(Cl)cc2)nc(SCc2ccccc2)nc1N1CCNCC1"
  UNIT: "%"
  growth: -47.6
